Target: K103NNY181C mutant reverse transcriptase (Human immunodeficiency virus type 1 group M subtype B, UniProt P04585, K690N/Y768C)
Construct: mutations that occur in the reverse transcriptase segment of the pol gene
Test: Reverse transcriptase enzymatic assay (PicoGreen), K103N/Y181C mutant RT
Assay type: biochemical, HIV-1
Conditions: IC50 mut (nM), mutant (K103N/Y181C) reverse transcriptase, enzymatic assay of Example 24
Please go through the items and note down their IC50.

Ask: // IC50 lookup, key: `CC(C)(C)c1ccc(-n2nnnc2SCC(=O)Nc2ccc(NC(=O)c3cccc(C(=O)O)c3)cc2Cl)c(Cl)c1`
Result: 134 nM

Ask: Recorded IC50 of `CC(C)(C)c1ccc(-n2nnnc2SCC(=O)Nc2ccc(NC(=O)Nc3ccccc3)cc2Cl)c(Cl)c1` , please.
Result: 187 nM

Ask: Please report the recorded IC50 for `CC(C)(C)c1ccc(-n2nnnc2SCC(=O)Nc2ccc(NC(=O)Cc3ccsc3)cc2Cl)c(Cl)c1` .
Result: 88 nM

Ask: Any idea what its IC50 is? The compound is `CC(C)(C)c1ccc(-n2nnnc2SCC(=O)Nc2ccc(NC(=O)C(C)(C)c3ccccc3)cc2Cl)c(Cl)c1`
Result: 337 nM

Ask: Can you share its IC50? I mean this compound: `CC(C)(C)c1ccc(-n2nnnc2SCC(=O)Nc2ccc(NC(=O)c3ccc(C(=O)O)cc3)cc2Cl)c(Cl)c1`
Result: 88 nM

Ask: Please give the measured IC50 for this compound: `CC(C)(C)c1ccc(-n2nnnc2SCC(=O)Nc2ccc(NC(=O)Cc3ccncc3)cc2Cl)c(Cl)c1`
Result: 38 nM

Ask: Tell me the measured IC50 of `CC(C)(C)c1ccc(-n2nnnc2SCC(=O)Nc2ccc(NC(=O)c3ccccc3O)cc2Cl)c(Cl)c1` , please.
Result: 415 nM
